# Test details: protein stability index of a GFP-peptide fusion (GPS, HEK-293T) (PSI 1-6); higher = more stable;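 also: 24-mer peptide tiles fused after GFP, lentivirally expressed, FACS-sorted into six equal bins by GFP/DsRed ratio, decoded by Illumina sequencing, PSI is the read-weighted mean bin number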
# Condition description: treatment: MLN4924 1 uM, 8 h; c terminus: a fixed tail appended
Recorded protein stability index by entry
# print the numeric value only

Sequence data: DYWLRRFEAEPLPENTNRQLLLQF [PI4K2A]
protein stability index: 2.35
--
Sequence data: LTFFAFLHCWLNAFAEMLRFGDRM [SOAT1]
protein stability index: 2.9
--
Sequence data: KVMKQPRCGVPDVAQFVLTEGNPR [MMP1]
protein stability index: 3.38
--
Sequence data: LYGLGSGSSYVQNGTGNAYEEEAN [CNOT7]
protein stability index: 4.84
--
Sequence data: LCQHFEAVHSGTPVTNNLLEKCKT [SPACA9]
protein stability index: 4.19

Tell me protein stability index reported for LTTFQDQLNRRGEFIQEIRRQLEA [OAS1] 3.29

Complete the entry with protein stability index for IYQGEDLPHPKSMLQATAEANNLA [ATL3] 4.33

Using known records, supply protein stability index for PPKIRLKPHRLGDSEHEPVYRAEL [PWWP2B] 4.09

Supply recorded protein stability index for QQLYYTEADYEDDSKIAFLMQLQD [IQUB] here. 3.48

====

# Test details: protein stability index of a GFP-peptide fusion (GPS, HEK-293T) (PSI 1-6); higher = more stable
# Condition description: treatment: DMSO; c terminus: a fixed tail appended
Quantity: protein stability index
No unit in the answer, only the number.

Check out these entries, answers already filled in.
Sequence data: GYLIKILTNSNLPEEELDFFEILR [CNOT7]
Value reported: 2.15

Sequence data: SIKPEASQMPPPAGGTSDDPEPSG [SCNN1D]
Value reported: 5.43

Sequence data: LGMVGLFGTIISGIQLLIVEYKDI [SLC35F2]
Value reported: 3.16

Sequence data: QSKGHGRAVDWWALGILIFEMLSG [PRKX]
Value reported: 2.58

Sequence data: RGKNKMAAQNCRKRKLDTILNLER [NFE2L1]
Value reported: 3.57

// fetch protein stability index given entry SSREDSLEAGLPLQVRGYPEEKKE [CHGA] 5.49

Consider the sequence VLRTWRTNLPKGACALLLTSVDHD [DLC1] . State its measured protein stability index. 2.26

State its protein stability index for this sequence: DAAVVRPGFLSTAEEETLSRELEP [ALKBH7] 5.53

Kindly indicate its recorded protein stability index. Item: RLRPLTLSTPKPLVDFCNKPILLH [GMPPB] 2.31

Give the reported protein stability index for this sequence. LLFMTSRVRFGQQKRYQDWFQRQY [INTS3] 1.99

====

# Test details: protein stability index of a GFP-peptide fusion (GPS, HEK-293T) (PSI 1-6); higher = more stable
# Condition description: treatment: MLN4924 1 uM, 8 h; c terminus: a fixed tail appended
Quantity: protein stability index
Enter the number alone.

Example cases with answers are listed next.
Sequence data: MEQPTSSTNGEKTKSPCESNNKKN [SPANXN3]
Quantity: protein stability index
Value reported: 4.92

Sequence data: IKDKEAPLHVAQTRLYLRSHRPNM [TEKT4]
Quantity: protein stability index
Value reported: 3.23

Sequence data: IKGLQRKERLKPAHIHLQQLTCFS [KRT34]
Quantity: protein stability index
Value reported: 2.36

Sequence data: SRVMFLLVDKETDKRHVEQKIQFK [PDZK1]
Quantity: protein stability index
Value reported: 2.88

Sequence data: QSKGHGRAVDWWALGILIFEMLSG [PRKX]
Quantity: protein stability index
Value reported: 2.56

Look up and state reported protein stability index for NMAGVTFRKFIPKCSKIVIDFDSI [DCTD] 1.95

Using known records, supply protein stability index for LEEQLQGWGEVMLMADKVLRWERA [ARL6IP1] 2.49

Please supply the value of reported protein stability index for the item TVASMMHRQETVECLKKFNARRKL [CAMK2B] 3.74

====

protein stability index by entry:
# Test details: protein stability index of a GFP-peptide fusion (GPS, HEK-293T) (PSI 1-6); higher = more stable
# Condition description: treatment: MLN4924 1 uM, 8 h; c terminus: a fixed tail appended
Format: numeric value only, no unit, no commentary.

Past entries and their recorded results:
Sequence data: PGTSFKDSTKTAFHRSQTLSYRNG [EFHC1]
protein stability index: 3.89
--
Sequence data: ETRAEDPPWFEGLESRFQSKSGYL [DFFB]
protein stability index: 3.63
--
Sequence data: NLRRHVPDLESGSESGADTISVNQ [DLC1]
protein stability index: 5.25
--
Sequence data: DEKYSIEPSWECKFDHIEVRDGPF [NETO1]
protein stability index: 3.9
--
Sequence data: PDRGSPEYRQRRERNNIAVRKSRD [CEBPD]
protein stability index: 5.35
--
Sequence data: DIVWGKIHGFPWWPARVLDISLGQ [PWWP2B]
protein stability index: 2.38
--
Sequence data: HQGHSDQHHHHHHHHHGRDFLLRA [RHOBTB2]
protein stability index: 3.65

# next sequence below
Answer with reported protein stability index of VYNAARDGKLQLLQKLLSGRSREE [FEM1A] 2.79

====

# Test details: protein stability index of a GFP-peptide fusion (GPS, HEK-293T) (PSI 1-6); higher = more stable
# Condition description: treatment: MLN4924 1 uM, 8 h; c terminus: a fixed tail appended
protein stability index reference
// return a plain number; no unit text

Solved entries (count: 3):
Sequence data: DIVLMAQALEKIFLQKVAQMPQEE [BRD3]
protein stability index: 3
--
Sequence data: NIQETHRLYRLKLEELTKLQNNCT [TMEM120A]
protein stability index: 3.08
--
Sequence data: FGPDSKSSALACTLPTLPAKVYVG [NCF4]
protein stability index: 3.03

Annotate the sequence LRRAWFSWPRASPASGASSIKPEA [SCNN1D] with its measured protein stability index. 3.04

Specify protein stability index for GTGLVLDEQLNEFHCLWDDSFPEG [HDAC6] and stop. 3.96

Indicate its recorded protein stability index; the sequence in question is LRVHLKMVDSFHRTSLQYGIMCLK [PPFIA4] 2.9

Write down protein stability index measured for item GGGFGGGSCQLGGGRGVSTCSTRF [KRT13] 3.59

Note down protein stability index recorded for PLGNTPMMNQSMMGMNMNIGMSAA [CLINT1] 2.9

Given the sequence DTINRSVLDFDFEKLCSISLSHIN [USP39] , write its reported protein stability index. 2.79

====

# Test details: protein stability index of a GFP-peptide fusion (GPS, HEK-293T) (PSI 1-6); higher = more stable
# Condition description: treatment: DMSO; c terminus: a fixed tail appended
# protein stability index per entry
Please respond with just the number, no unit label.

Sample answers from the record:
Sequence data: HSSPVDLKIPQVRGMDLSWESRTG [LCOR]
protein stability index: 3.43
//
Sequence data: SRRYNRKEPAEFNGDGAFLHDNHE [ZNF649]
protein stability index: 4.73
//
Sequence data: NELDSGFRLLNLKNDSLRKRYDGL [TSN]
protein stability index: 3.21
//
Sequence data: LRHFFLVEDLVDSLKLALLFYILT [RTN2]
protein stability index: 2.79
//
Sequence data: EEFIATIRAAKGLDQALKEGGKLP [ZC2HC1A]
protein stability index: 3.98

Please look at this sequence and report its protein stability index: IGMPFNQLGTLAGSKYYNVEAMYC [SMG5] 2.36

Give protein stability index for LGKLPPQYALELLTVYAWERGSMK [OAS1] 2.31

Could you please provide reported protein stability index for FSGDGEYIVAGSARQHALYIWEKS [RBBP5] ? Thanks! 2.59

Read the entry IRLTQYIDGQGRPRTSQSEETRVW [CAMK2B] and write its reported protein stability index. 3.13

Supply protein stability index value. Item: PGTSFKDSTKTAFHRSQTLSYRNG [EFHC1] 3.68

Tell me measured protein stability index for CKICGRTFFPVALKKHGPICQKTA [ZC2HC1A] please. 3.58

Provide measured protein stability index value, entry: FFPWREAKPGSTEKGLPLRKTHVL [MFSD9] 2.72

====

# Test details: protein stability index of a GFP-peptide fusion (GPS, HEK-293T) (PSI 1-6); higher = more stable
# Condition description: treatment: DMSO; c terminus: a fixed tail appended
Parameter: protein stability index. Scope: all listed entries.

Sequence data: LRRAWFSWPRASPASGASSIKPEA [SCNN1D]
Value reported: 2.99
//
Sequence data: VAGVLPDIEQFFNIGDSSSGLIQT [SPNS1]
Value reported: 3.16
//
Sequence data: PPHPAPAPQHPAASALRTRMTGGR [DYRK1B]
Value reported: 4.86
//
Sequence data: AEDDHMLIQNEYRNGGSLADAISE [WEE1]
Value reported: 5.06

Answer with reported protein stability index of LRGGGQVLLGWTLHYFPFFLMGRV [POMT2] 3.01

Consider the sequence PKGEPGSKQSPPMASSPIQPRKGG [FBF1] and give its recorded protein stability index. 5.33

Tell me measured protein stability index for SAPLQGAVPPTSSVPPVAGAPSVG [SNAP91] please. 4.91

Kindly indicate its recorded protein stability index. Item: RESFTSRQKTSGPSVIQEIHQESG [C10orf62] 4.94
